Tested on: mice (C57B1/6xDBA/2)F1 B6D2F1
CONDITIONS_USED: single injection into tail vein, probit analysis
ENDPOINT: LD50 (mg/kg)
Kindly provide the numeric value in mg/kg only, without the unit symbol.

Known results for compounds:
>>> reported("CC1C=CC=CC=CC=CC=CC=CC=CC(OC2OC(C)C(O)C(N)C2O)CC2OC(O)(CC(O)CCCC(O)CC(O)CC(O)CC(=O)OC(C)C(C)C1O)CC(O)C2C.NC(CCC(=O)O)C(=O)O (stereo not shown)")
50.8
>>> reported("C[C@@H]1[C@H](O)[C@@H](C)/C=C/C=C/C=C/C=C/C=C/C=C/C=C/[C@H](O[C@@H]2O[C@H](C)[C@@H](O)[C@H](N)[C@@H]2O)C[C@@H]2O[C@](O)(C[C@@H](O)C[C@@H](O)[C@H](O)CC[C@@H](O)C[C@@H](O)CC(=O)O[C@H]1C)C[C@H](O)[C@H]2C(=O)O [Amphotericin B, reference compound]")
2.8
>>> reported("CC1C=CC=CC=CC=CC=CC=CC=CC(OC2OC(C)C(O)C(N)C2O)CC2OC(O)(CC(O)C(O)CCC(O)CC(O)CC(O)CC(=O)OC(C)C(C)C1O)CC(O)C2C(=O)NCCN(C)C.NC(CCC(=O)O)C(=O)O (stereo not shown)")
22.1

Incoming: Check mice (C57B1/6xDBA/2)F1 B6D2F1 data and give LD50 for CC1C=CC=CC=CC=CC=CC=CC=CC(OC2OC(C)C(O)C(N)C2O)CC2OC(O)(CC(O)C(O)CCC(O)CC(O)CC(O)CC(=O)OC(C)C(C)C1O)CC(O)C2C.NC(CCC(=O)O)C(=O)O [Compound 29, Compound 1 L-glutamate] .
Outgoing: 17.8

----------
Here, each record is paired with measured Haemolysis of erythrocytes, Mean ± S.E.M. data.
Tested on: erythrocytes
ASSAY_PROCEDURE: In vitro toxicity study, haemolysis (Tables 11 and 12)
Format: cell-based, horse
CONDITIONS_USED: 25 μM (Table 12)
Kindly provide the numeric value in % only, without the unit symbol.

>>> reported("CC1C=CC=CC=CC=CC=CC=CC=CC(OC2OC(C)C(O)C(NCC3(O)OCC(O)C(O)C3O)C2O)CC2OC(O)(CC(O)C(O)CCC(O)CC(O)CC(O)CC(=O)OC(C)C(C)C1O)CC(O)C2C(=O)O (single isomer, unassigned) [Compound 18]")
3.9

Incoming: Specify Haemolysis of erythrocytes, Mean ± S.E.M. for CCOC(=O)CNC(=O)C1C(O)CC2(O)CC(O)C(O)CCC(O)CC(O)CC(O)CC(=O)OC(C)C(C)C(O)C(C)C=CC=CC=CC=CC=CC=CC=CC(OC3OC(C)C(O)C(N)C3O)CC1O2 (stereo not drawn) [Compound 9] and stop.
Outgoing: 18.4

Incoming: Specify Haemolysis of erythrocytes, Mean ± S.E.M. for CNC(=O)C1C(O)CC2(O)CC(O)C(O)CCC(O)CC(O)CC(O)CC(=O)OC(C)C(C)C(O)C(C)C=CC=CC=CC=CC=CC=CC=CC(OC3OC(C)C(O)C(N)C3O)CC1O2 (stereo not drawn) [Compound 6] and stop.
Outgoing: 3.7

----------
Tested on: Aspergillus niger ATCC 16404
ASSAY_PROCEDURE: Antifungal susceptibility study (1), broth microdilution MIC
Assay type: cell-based
CONDITIONS_USED: lowest concentration preventing any visible growth, read at 48 hours, 35° C., RPMI 1640 pH 7.0
ENDPOINT: MIC Aspergillus niger ATCC 16404

>>> reported("CC1O[C@@H](O[C@H]2/C=C/C=C/C=C/C=C/C=C/C=C/C=C/[C@H](C)[C@@H](O)[C@@H](C)[C@H](C)OC(=O)C[C@H](O)C[C@H](O)C[C@H](O)CC[C@@H](O)[C@H](O)C[C@]3(O)C[C@H](O)[C@@H](C(=O)NCCN(C)C)[C@H](C2)O3)[C@H](O)C(NC(=O)[C@@H](N)CCCCN)[C@@H]1O.Cl (stereo partly drawn)")
"2 µg/mL"
>>> reported("CC1C=CC=CC=CC=CC=CC=CC=CC(OC2OC(C)C(O)C(N(Cc3ccc(N(C)C)cc3)Cc3ccc(N(C)C)cc3)C2O)CC2OC(O)(CC(O)C(O)CCC(O)CC(O)CC(O)CC(=O)OC(C)C(C)C1O)CC(O)C2C(=O)O (stereo not drawn)")
"4 µg/mL"

Incoming: Check Aspergillus niger ATCC 16404 data and give MIC Aspergillus niger ATCC 16404 for CC1C=CC=CC=CC=CC=CC=CC=CC(OC2OC(C)C(O)C(N)C2O)CC2OC(O)(CC(O)C(O)CCC(O)CC(O)CC(O)CC(=O)OC(C)C(C)C1O)CC(O)C2C(=O)NCCCN(C)C (stereo not drawn) [Compound 11, S44HP DMAP Amide] .
Outgoing: 2 µg/mL

Incoming: Check Aspergillus niger ATCC 16404 data and give MIC Aspergillus niger ATCC 16404 for CC1C=CC=CC=CC=CC=CC=CC=CC(OC2OC(C)C(O)C(NCC3(O)OCC(O)C(O)C3O)C2O)CC2OC(O)(CC(O)C(O)CCC(O)CC(O)CC(O)CC(=O)OC(C)C(C)C1O)CC(O)C2C(=O)NCCCN(C)C (stereo not drawn) [Compound 31, N-tagatopyronosyl S44HP DMAP amide] .
Outgoing: 2 µg/mL

Incoming: Check Aspergillus niger ATCC 16404 data and give MIC Aspergillus niger ATCC 16404 for CC1C=CC=CC=CC=CC=CC=CC=CC(OC2OC(C)C(O)C(N)C2O)CC2OC(O)(CC(O)C(O)CCC(O)CC(O)CC(O)CC(=O)OC(C)C(C)C1O)CC(O)C2C(=O)N1CCN(CCO)CC1 (stereo not drawn) .
Outgoing: 2 µg/mL

Incoming: Check Aspergillus niger ATCC 16404 data and give MIC Aspergillus niger ATCC 16404 for CC1C=CC=CC=CC=CC=CC=CC=CC(OC2OC(C)C(O)C(NCc3ccc(N(C)C)cc3)C2O)CC2OC(O)(CC(O)C(O)CCC(O)CC(O)CC(O)CC(=O)OC(C)C(C)C1O)CC(O)C2C(=O)NCCCO (stereo not drawn) .
Outgoing: 2 µg/mL

Incoming: Check Aspergillus niger ATCC 16404 data and give MIC Aspergillus niger ATCC 16404 for CC1C=CC=CC=CC=CC=CC=CC=CC(OC2OC(C)C(O)C(N)C2O)CC2OC(O)(CC(O)C(O)CCC(O)CC(O)CC(O)CC(=O)OC(C)C(C)C1O)CC(O)C2C(=O)NCCCO (stereo not drawn) .
Outgoing: 2 µg/mL

Incoming: Check Aspergillus niger ATCC 16404 data and give MIC Aspergillus niger ATCC 16404 for CC1C=CC=CC=CC=CC=CC=CC=CC(OC2OC(C)C(O)C(NC(=O)c3ccc(CN)cc3)C2O)CC2OC(O)(CC(O)C(O)CCC(O)CC(O)CC(O)CC(=O)OC(C)C(C)C1O)CC(O)C2C(=O)NCCCO (stereo not drawn) .
Outgoing: 4 µg/mL

Incoming: Check Aspergillus niger ATCC 16404 data and give MIC Aspergillus niger ATCC 16404 for CC1C=CC=CC=CC=CC=CC=CC=CC(OC2OC(C)C(O)C(N)C2O)CC2OC(O)(CC(O)C(O)CCC(O)CC(O)CC(O)CC(=O)OC(C)C(C)C1O)CC(O)C2C(=O)NC1C(O)OC(CO)C(O)C1O (stereo not drawn) .
Outgoing: 2 µg/mL

----------
Here, each record is paired with measured Candida albicans burden in kidneys (Mean) data.
System: Candida albicans (strain 14053 ATCC)
ASSAY_PROCEDURE: Model of the candidiasis sepsis of mice, kidney burden
Format: in vivo
CONDITIONS_USED: dose 2.5 mg/kg/d i.v. for four days, day 5, n=3 mice
Kindly provide the numeric value in CFU/g only, without the unit symbol.

>>> reported("CC1O[C@@H](O[C@H]2/C=C/C=C/C=C/C=C/C=C/C=C/C=C/[C@H](C)[C@@H](O)[C@@H](C)[C@H](C)OC(=O)C[C@H](O)C[C@H](O)C[C@H](O)CC[C@@H](O)[C@H](O)C[C@]3(O)C[C@H](O)[C@@H](C(=O)NCCN(C)C)[C@H](C2)O3)[C@H](O)C(N)[C@@H]1O (stereo partly shown) [Compound 48]")
63
>>> reported("CC1O[C@@H](O[C@H]2/C=C/C=C/C=C/C=C/C=C/C=C/C=C/[C@H](C)[C@@H](O)[C@@H](C)[C@H](C)OC(=O)C[C@H](O)C[C@H](O)C[C@H](O)CC[C@@H](O)[C@H](O)C[C@]3(O)C[C@H](O)[C@@H](C(=O)NCCN(C)C)[C@H](C2)O3)[C@H](O)C(NCC2(O)OC[C@@H](O)[C@@H](O)[C@@H]2O)[C@@H]1O.Cl (stereo partly shown) [Compound 41]")
1667
>>> reported("CC1C=CC=CC=CC=CC=CC=CC=CC(OC2OC(C)C(O)C(N)C2O)CC2OC(O)(CC(O)C(O)CCC(O)CC(O)CC(O)CC(=O)OC(C)C(C)C1O)CC(O)C2C.NC(CCC(=O)O)C(=O)O [Compound 29, Compound 1 L-glutamate]")
133

Incoming: Check Candida albicans (strain 14053 ATCC) data and give Candida albicans burden in kidneys (Mean) for CC1O[C@@H](O[C@H]2/C=C/C=C/C=C/C=C/C=C/C=C/C=C/[C@H](C)[C@@H](O)[C@@H](C)[C@H](C)OC(=O)C[C@H](O)C[C@H](O)C[C@H](O)CC[C@@H](O)[C@H](O)C[C@]3(O)C[C@H](O)[C@@H](C)[C@H](C2)O3)[C@H](O)C(NC(=O)[C@@H](N)CCCCN)[C@@H]1O (stereo partly drawn) [Compound 51, N-L-Lysyl-Compound 1] .
Outgoing: 5
